src = the supplement of paper PMC4858399

tested on: Caenorhabditis elegans N2; experiment: mean nematode size ln(EXT) after 48 h, plate-adjusted (DMSO control set to 6) (ln(EXT), control-adjusted); higher = larger nematodes / less growth inhibition; conditions: 50 µM; exposure time 48 h
Counter-ions that a name gives are not always drawn.
quantity-kind: mean nematode size ln(EXT) (ln)
Would you mind answering with just the numeric figure?

Form field: reported mean nematode size ln(EXT) (ln) of CC[C@H](C)C(=O)O[C@H]1C[C@H](O)C=C2C=C[C@H](C)[C@H](CC[C@@H](O)C[C@@H](O)CC(=O)O)[C@H]21 [Pravastatin sodium]
5.91

Ok, now CCOC(=O)c1ccc(O)cc1 [Ethylparaben]
5.84

Ok, now CCOP(=O)(NC(C)C)Oc1ccc(SC)c(C)c1 (centres undefined) [Fenamiphos]
4.93

Ok, now CC(C)c1ccc(C(=O)N=C(N)N)cc1S(C)(=O)=O [Cariporide mesylate (HOE642)]
5.7

Ok, now CCCCCCCCCCCCCCCCOS(=O)(=O)O [Sodium cetyl sulfate]
5.38

Ok, now CCOS(=O)(=O)OCC [Diethyl sulfate]
5.88

Ok, now CCCCCCC(=O)OCC [Heptanoic acid, ethyl ester]
5.85

Ok, now CCN(CC)N=O [N-Nitrosodiethylamine]
5.77

Ok, now CCCCCCCCCC(=O)O [Decanoic acid]
5.85

* * *

tested on: Caenorhabditis elegans N2; assay: mean nematode size ln(EXT) after 48 h, plate-adjusted (DMSO control set to 6) (ln(EXT), control-adjusted); higher = larger nematodes / less growth inhibition; details: 1 µM; exposure time 48 h
Structures can show the parent of a compound that is named as a salt.
What mean nematode size ln(EXT) (ln) was measured for each of the following?
Would you mind answering with just the numeric figure?

mean nematode size ln(EXT) (ln) of CC(C)CCCCCCOC(=O)C1CCCCC1C(=O)OCCCCCCC(C)C (centres undefined) on Caenorhabditis elegans N2?
5.97

Ok, now C=CCc1cc(S(=O)(=O)c2ccc(O)c(CC=C)c2)ccc1O [4,4'-sulfonylbis[2-(prop-2-en-1-yl)phenol]]
5.88

Ok, now CC(C)OC(=O)C(C)(C)Oc1ccc(C(=O)c2ccc(Cl)cc2)cc1 [Fenofibrate]
5.81

Ok, now c1ccc(C2CO2)cc1 (centres undefined) [Styrene oxide]
6.04

Ok, now `CO/N=C(/C(=O)OC)c1ccccc1CO/N=C(\C)c1cccc(C(F)(F)F)c1`
5.87

Ok, now `CC(c1ccc(O)cc1)(c1ccc(O)cc1)c1ccc(O)cc1`
6.01

Ok, now `CC[C@H](C)[C@@H](C(=O)O)n1sc2ccccc2c1=O`
6.12

Ok, now `Oc1ccc2c(c1)OC[C@@H](N1CCC(O)(c3ccc(F)cc3)CC1)[C@H]2O`
6.11

Ok, now ClC1=C(Cl)C2(Cl)C3C(Cl)C(Cl)CC3C1(Cl)C2(Cl)Cl (centres undefined)
5.93

Ok, now `NC(=O)N(O)[C@@H]1COc2cc(OCc3ccccc3)ccc21`
5.87

Ok, now COc1cc(-c2ccc(N)c(OC)c2)ccc1N [3,3'-Dimethoxybenzidine)]
6.08

Ok, now `c1ccc2c(c1)Cc1ccccc1-2`
6.06

Ok, now `Nc1ccc2ccccc2c1`
5.76

Ok, now O=C(O)Cc1ccccc1Nc1c(Cl)cccc1Cl [Diclofenac sodium salt]
5.95

Ok, now `Cc1c(C(=O)O)c(O)cc2c1C(=O)c1c(O)c([C@@H]3O[C@H](CO)[C@@H](O)[C@H](O)[C@H]3O)c(O)c(O)c1C2=O`
5.92

Ok, now CCC1(c2ccccc2)C(=O)NC(=O)NC1=O [Phenobarbital sodium salt]
5.82

Ok, now `OC(c1ccc(Cl)cc1)(c1ccc(Cl)cc1)C(Cl)(Cl)Cl`
5.63

Ok, now `Nc1ccc([N+](=O)[O-])cc1`
5.77

Ok, now CCCCCCCCCCCCc1cccc(S(=O)(=O)O)c1 [Triethanolamine dodecylbenzene sulfonate]
5.59

* * *

system: Caenorhabditis elegans N2; assay: mean nematode size ln(EXT) after 48 h, plate-adjusted (DMSO control set to 6) (ln(EXT), control-adjusted); higher = larger nematodes / less growth inhibition; details: 10 µM; exposure time 48 h
Where a name gives a salt, the structure may show the parent alone.
What mean nematode size ln(EXT) (ln) was measured for each of the following?
Would you mind answering with just the numeric figure?

Form field: reported mean nematode size ln(EXT) (ln) of `CCCCCCCCOC(=O)CCCCCCCCC(=O)OCCCCCCCC`
6.22

Ok, now `CCOP(=S)(OCC)Oc1nc(Cl)c(Cl)cc1Cl`
3.42

Ok, now `COc1c(Cl)ccc(Cl)c1C(=O)O`
5.98

Ok, now `CCOc1ccc2c(c1)C(C)=CC(C)(C)N2`
5.78

Ok, now `Oc1ccc2c(c1)OC[C@@H](N1CCC(O)(c3ccc(F)cc3)CC1)[C@H]2O`
6.18

Ok, now CCNP(=S)(OC)O/C(C)=C/C(=O)OC(C)C (centres undefined)
5.71

Ok, now `O=c1[nH]sc2ccccc12`
5.74

Ok, now `CC(C)c1nnc2ccc(-c3ocnc3-c3cc(F)ccc3F)cn12`
5.82

Ok, now `Cc1ccc(C(C)(C)C)c(O)c1`
6.06

Ok, now CCCCC(CC)COC(=O)c1ccc(C(=O)OCC(CC)CCCC)c(C(=O)OCC(CC)CCCC)c1 (centres undefined) [Tris(2-ethylhexyl)trimellitate]
5.81

Ok, now `CC(=O)S[C@H](C(=O)N[C@H]1Cc2ccccc2[C@H]2CCC[C@@H](C(=O)O)N2C1=O)C(C)C`
5.88

Ok, now `CC(C)(C)CC(C)(C)c1ccc(O)cc1`
5.97

Ok, now `CCCC(CCC)C(=O)O`
6.03

Ok, now `O=C(O)c1cccc(C(=O)O)c1`
5.87

Ok, now `CCNc1ccccc1`
5.67

Ok, now `Cc1cc2c(cc1C(F)(F)F)N(C(=O)Nc1ccc(Oc3cccnc3C)nc1)CC2`
5.71

Ok, now `CC(C)Oc1cccc(NC(=O)c2ccccc2C(F)(F)F)c1`
6.01

Ok, now O=C(Oc1ccc(Br)cc1)N1CCN2CCC1CC2 [4-bromophenyl 1,4-diazabicyclo[3.2.2]nonane-4-carboxylate]
5.83

Ok, now `Cc1cc(Cc2ccc(N)c(C)c2)ccc1N`
5.78

Ok, now N#CC(Br)(Br)C(N)=O [2,2-Dibromo-3-nitrilopropionamide]
6.07

Ok, now `OC(CCl)CCl`
5.82

Ok, now `C[Si](Cn1cncn1)(c1ccc(F)cc1)c1ccc(F)cc1`
5.53

Ok, now CC/C(=C(\c1ccccc1)c1ccc(OCCN(C)C)cc1)c1ccccc1 [Tamoxifen citrate salt]
5.01

Ok, now `COc1ccc([N+](=O)[O-])cc1N`
5.77

Ok, now `CCc1cccc(CC)c1N`
5.8

Ok, now `COCCOC[C@H](CC1(C(=O)N[C@H]2CC[C@@H](C(=O)O)CC2)CCCC1)C(=O)Oc1ccc2c(c1)CCC2`
5.81

Ok, now CCCCCCCCCCCCCCCCOS(=O)(=O)O [Sodium cetyl sulfate]
5.92

Ok, now COc1cc(-c2ccc(N)c(OC)c2)ccc1N [3,3'-Dimethoxybenzidine dihydrochloride]
5.65

Ok, now `Nc1ccc2c(c1)C(=O)c1ccccc1C2=O`
5.81

Ok, now `CSC1=N[C@@](C)(c2ccccc2)C(=O)N1Nc1ccccc1`
5.96

Ok, now CCCCCOC(C)=O [Pentyl acetate]
6

Ok, now CC1COC(Cn2cncn2)(c2ccc(Oc3ccc(Cl)cc3)cc2Cl)O1 (centres undefined)
5.15

Ok, now `c1ccc2cc3ccccc3cc2c1`
3.78

Ok, now CCOC(=O)C(C)OC(=O)c1cc(Oc2ccc(C(F)(F)F)cc2Cl)ccc1[N+](=O)[O-] (centres undefined)
5.86

Ok, now `O=[N+]([O-])c1ccc(Cl)cc1`
5.87

Ok, now `Oc1ccccc1-c1ccccc1`
5.99

Ok, now Oc1ccc2c(c1)-c1ccccc1C2 [3-Hydroxyfluorene]
5.97

Ok, now `CC(C)N1C(=O)c2ccccc2NS1(=O)=O`
6

Ok, now CC(C1CC1)C(O)(Cn1cncn1)c1ccc(Cl)cc1 (centres undefined)
5.99

* * *

test system: Caenorhabditis elegans N2; experiment: mean nematode size ln(EXT) after 48 h, plate-adjusted (DMSO control set to 6) (ln(EXT), control-adjusted); higher = larger nematodes / less growth inhibition; settings: 1 µM; exposure time 48 h
quantity-kind: mean nematode size ln(EXT) (ln)
Would you mind answering with just the numeric figure?

Form field: reported mean nematode size ln(EXT) (ln) of `Cc1cccc(C)c1O`
5.89

Ok, now CC1COC(Cn2cncn2)(c2ccc(Oc3ccc(Cl)cc3)cc2Cl)O1 (stereo not given)
5.79

Ok, now `CCCOC(=O)c1ccc(C(=O)OCCC)nc1`
5.95

Ok, now COS(C)(=O)=O [Methyl methanesulfonate]
5.9

Ok, now O=P(Oc1ccccc1)(Oc1ccccc1)Oc1ccccc1 [Triphenyl phosphate]
5.63

* * *

What mean nematode size ln(EXT) (ln) was measured for each of the following?
test system: Caenorhabditis elegans N2; assay: mean nematode size ln(EXT) after 48 h, plate-adjusted (DMSO control set to 6) (ln(EXT), control-adjusted); higher = larger nematodes / less growth inhibition; conditions: 200 µM; exposure time 48 h
Would you mind answering with just the numeric figure?

Form field: reported mean nematode size ln(EXT) (ln) of `CN1CCCC1=O`
5.84

Ok, now COC(=O)c1ccc(I)cc1S(=O)(=O)NC(=O)Nc1nc(C)nc(OC)n1 [Iodosulfuron-methyl-sodium]
5.89

Ok, now CCCCCCCCOC(=O)c1ccc(C(=O)OCCCCCCCC)c(C(=O)OCCCCCCCC)c1 [Tri (n-octyl) Trimellitate]
5.64

Ok, now `C1CNCCN1`
5.74

Ok, now CC(C1CC1)C(O)(Cn1cncn1)c1ccc(Cl)cc1 (stereo unspecified)
5.59

Ok, now `NC(N)=O`
5.74

Ok, now `Cc1cc(SC2=C(O)C[C@@](CCc3ccc(N)cc3)(C(C)C)OC2=O)c(C(C)(C)C)cc1CO`
5.64

Ok, now CCOC(=O)C(C)(C)Oc1ccc(Cl)cc1 [Clofibrate]
5.54

Ok, now `Clc1ccccc1-c1nnc(-c2ccccc2Cl)nn1`
5.73

Ok, now CC(C)(C)OOC(C)(C)C [Di-tert-butyl peroxide]
5.31

Ok, now `CN(C)CCCN(C)CCCN(C)C`
5.96
